target: acetylcholinesterase from Electrophorus electricus (electric eel) (type VI-S) (Electrophorus electricus, UniProt O42275); construct: gene ache; commercial native enzyme from Sigma, type VI-S lyophilized powder; test: Ellman assay, […] nm, 4PL fit; format: biochemical; settings: read-out: IC50
Sequence (O42275 24-633): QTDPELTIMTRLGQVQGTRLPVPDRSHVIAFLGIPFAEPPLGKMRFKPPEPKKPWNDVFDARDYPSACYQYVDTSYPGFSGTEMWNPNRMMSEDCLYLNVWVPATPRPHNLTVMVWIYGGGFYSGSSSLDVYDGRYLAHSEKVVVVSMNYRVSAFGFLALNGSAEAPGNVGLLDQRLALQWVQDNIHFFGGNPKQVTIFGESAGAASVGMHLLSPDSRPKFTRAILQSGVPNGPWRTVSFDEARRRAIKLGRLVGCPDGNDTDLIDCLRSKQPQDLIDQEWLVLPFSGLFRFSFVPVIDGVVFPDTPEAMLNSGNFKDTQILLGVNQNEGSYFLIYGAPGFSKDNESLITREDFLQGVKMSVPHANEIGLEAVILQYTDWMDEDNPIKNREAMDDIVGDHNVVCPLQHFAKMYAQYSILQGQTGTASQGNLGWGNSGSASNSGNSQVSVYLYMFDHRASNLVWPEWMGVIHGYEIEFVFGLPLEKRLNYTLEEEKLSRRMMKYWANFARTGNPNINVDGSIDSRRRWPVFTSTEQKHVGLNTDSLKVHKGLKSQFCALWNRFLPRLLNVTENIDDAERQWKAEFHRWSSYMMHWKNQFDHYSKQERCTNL
RECORDED_METRIC: pIC50
Recall that pIC50 is obtained by taking minus log10 of the concentration measured in molar.

Entry under test: COc1ccc2cc3[n+](cc2c1OC)CCc1cc2c(cc1-3)OCO2 . Its pIC50 was 5.55

pIC50 in this record for O=C(O)c1cc(O)c(O)c(O)c1 : 4.33

----------
biological target: acetylcholinesterase from Electrophorus electricus (electric eel) (type VI-S) (Electrophorus electricus); construct: gene ache; commercial native enzyme from Sigma, type VI-S lyophilized powder; assay: Ellman assay, […] nm, 4PL fit; type: biochemical; settings: read-out: no inhibition up to 50 μg/mL
pIC50: −log10 of the molar value.
RECORDED_METRIC: pIC50

Lab note: COc1cc(/C=C/C(=O)O)ccc1O gave pIC50 of < 3.59

Data point: COc1cc(C(=O)O)ccc1O ; pIC50 = < 3.53
